target: Leukotriene B4 receptor 1 (Homo sapiens); assay: ChEBML_99664
Sequence (Q15722 whole entry): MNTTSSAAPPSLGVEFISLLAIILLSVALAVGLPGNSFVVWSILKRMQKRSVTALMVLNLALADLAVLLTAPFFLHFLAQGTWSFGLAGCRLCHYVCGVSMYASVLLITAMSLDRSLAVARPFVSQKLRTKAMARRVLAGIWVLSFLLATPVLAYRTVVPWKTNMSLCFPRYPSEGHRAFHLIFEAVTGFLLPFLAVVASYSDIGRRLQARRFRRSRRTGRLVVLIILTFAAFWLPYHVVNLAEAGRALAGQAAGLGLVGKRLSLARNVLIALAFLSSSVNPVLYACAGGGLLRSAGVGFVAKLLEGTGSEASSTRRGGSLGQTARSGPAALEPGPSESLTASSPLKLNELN
MEASURED PROPERTY: pIC50
# reply with the number alone; pIC50 is -log10 of concentration in mol/L

For this compound ( COc1cc(C(=O)O)ccc1Cc1cn(C(c2ccccc2)c2ccccc2)c2ccc(Br)cc12 ), measured pIC50 is 6.40

Attribution: BindingDB's records for doi:10.1016/j.bmcl.2003.08.070
